Source: ChEMBL document CHEMBL3988442

The molecules listed here are annotated with their Percent Effect.
# System: Wolbachia pipientis
# Protocol Text: Anti-Wolbachia Cell-Based Screen
# Format: functional
# Parameters: scale not given: in the data most compounds retested in dose-response had high values
# Condition Set: 5 µM
Out of some 48,000 compounds screened, about 13,000 (27%) showed an effect of 50% or more. Some of the results follow.
Value Type: Percent Effect (%)

> print(dat)
                                    molecule      value.type  assay.result
 1  COc1cccc(Nc2nc(C3CCCNC3)c3sc(C)c(C)n23)c1.Cl (centres undefined)  Percent Effect         119.3
 2  Cc1cc(C)c(CNC(=O)N2CCCN(C(=O)C(C)C)CC2)c(C)c1  Percent Effect          -1.6
 3  COc1ccc2nc3n(c2c1)[C@@H](CNC(=O)c1cncnc1)COC3  Percent Effect        -25.15
 4  Cc1cccc(C2(CNC(=O)CCNS(C)(=O)=O)CCCC2)c1  Percent Effect         4.767
 5  Cc1nnc(CNC(=O)CC2CCc3ccccc32)o1 (centres undefined)  Percent Effect         1.636
 6  CCC(CNC(=O)c1nc(=O)[nH][nH]1)Oc1cccc(C(F)(F)F)c1 (centres undefined)  Percent Effect        -1.128
 7  C[S+]([O-])CCNCc1ccc(OCc2cscn2)cc1 (centres undefined)  Percent Effect         1.801
 8  Cn1c(-c2cccs2)nn(CCNS(=O)(=O)c2ccccc2Cl)c1=O  Percent Effect         11.66
 9  O=c1cc(-c2ccncc2)nc(-c2ccc(CN3CC[C@H](O)C3)cc2)[nH]1  Percent Effect         9.166
10  COc1ccccc1C(=O)Nc1c(F)c(C(=O)N2CCCC2)nn1C  Percent Effect         113.5
11           CC(=O)N1CCCN(CCCSc2ccccc2Cl)CC1  Percent Effect        -4.168
12  N#Cc1ccc(N2CCCC2Cn2cccn2)nc1 (centres undefined)  Percent Effect         15.37
13  COc1cccc(Nc2nc(C3CCNCC3)c3sc(C)c(C)n23)c1.Cl  Percent Effect         130.3
14       Brc1ccc(C2(CNCc3cc[nH]c3)CCOCC2)cc1  Percent Effect          10.2
15               CCN1CCc2onc(CNc3ncccn3)c2C1  Percent Effect          1.38
16       c1cnc(NCc2noc3c2CN(c2cnccn2)CC3)nc1  Percent Effect         99.25
17                    OCc1ccc(OCC(F)(F)F)cc1  Percent Effect        0.2216
18  OC1CCN([C@@H]2CCN(c3nc(-c4ccccc4)no3)C[C@H]2O)CC1  Percent Effect        -5.249
19  Cn1cc(C(NCCc2ccccn2)c2cccc(F)c2)cn1 (centres undefined)  Percent Effect        -5.902
20  CC(C)n1nc(CNc2ncccn2)c2c1CN(S(C)(=O)=O)CC2  Percent Effect         3.209
21  O=C(NCc1csc2ccccc12)NCC1(O)CCSC1 (centres undefined)  Percent Effect        -14.62
22          Cc1cnn(CCNCC(=O)Nc2ccc(Br)cn2)c1  Percent Effect        -4.986
23  COc1ccc(C(=O)N2CCC(Oc3ccccc3)(C(=O)O)CC2)o1  Percent Effect        -6.202
24     O=C(c1cncc(Br)c1)N1CCCc2c(F)cc(F)cc21  Percent Effect          -4.9
